For each entry below, report its Ki value.
TARGET OF ASSAY: STAT6 protein (Homo sapiens)
Sequence (P42226 whole entry): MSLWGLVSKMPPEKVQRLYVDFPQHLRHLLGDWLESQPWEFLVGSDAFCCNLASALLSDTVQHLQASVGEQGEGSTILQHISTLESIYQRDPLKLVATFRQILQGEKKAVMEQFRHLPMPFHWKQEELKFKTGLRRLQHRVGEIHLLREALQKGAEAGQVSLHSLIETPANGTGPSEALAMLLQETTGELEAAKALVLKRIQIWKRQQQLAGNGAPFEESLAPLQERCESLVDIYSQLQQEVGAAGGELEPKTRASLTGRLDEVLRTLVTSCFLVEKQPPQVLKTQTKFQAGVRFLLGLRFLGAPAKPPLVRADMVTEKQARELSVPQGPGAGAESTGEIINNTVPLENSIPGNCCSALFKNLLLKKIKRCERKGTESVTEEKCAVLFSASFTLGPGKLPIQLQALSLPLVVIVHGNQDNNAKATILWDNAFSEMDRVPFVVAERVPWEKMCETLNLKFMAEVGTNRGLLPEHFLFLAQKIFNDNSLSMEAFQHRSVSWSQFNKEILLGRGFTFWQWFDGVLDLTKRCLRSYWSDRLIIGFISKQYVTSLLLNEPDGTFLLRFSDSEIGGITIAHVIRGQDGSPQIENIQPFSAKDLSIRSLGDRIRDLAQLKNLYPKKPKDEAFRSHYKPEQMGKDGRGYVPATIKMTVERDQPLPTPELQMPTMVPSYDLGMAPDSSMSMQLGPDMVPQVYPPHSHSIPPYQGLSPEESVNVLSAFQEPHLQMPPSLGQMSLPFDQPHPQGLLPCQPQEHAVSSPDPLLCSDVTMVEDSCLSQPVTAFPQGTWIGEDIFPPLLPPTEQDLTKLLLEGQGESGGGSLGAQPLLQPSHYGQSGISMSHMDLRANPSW
PROTOCOL TEXT: Fluorescence polarization (FP) binding assay, STAT6
SETUP CONDITIONS: FP competition, 5 nM fluorescein-labeled tracer, 200 nM protein, PBS pH7.4; read-out: Binding STAT6

Answer with the recorded Ki for the compound listed here: "CCCCC(=O)N1CC[C@@H]2CCN(C(=O)[C@@H]3CCCN3C(=O)[C@@H](NC(=O)c3cc4cc(C(F)(F)P(=O)(O)O)ccc4s3)C(C)(C)C)C[C@@H]21"
> 10 µM

Output Ki of "CC(=O)N1CC[C@H]2CC[C@@H](C(=O)NC3(c4ccccc4)CC3)N2C(=O)[C@@H](NC(=O)c2cc3cc(C(F)(F)P(=O)(O)O)ccc3[nH]2)C1"
> 10 µM

Please give the documented Ki of "CC(C)(C)[C@H](NC(=O)c1cc2cc(C(F)(F)P(=O)(O)O)ccc2s1)C(=O)N1CCCC[C@H]1C(=O)N1Cc2ccccc2C1"
> 10 µM

Supply measured Ki of CC(C)(C)[C@H](NC(=O)c1cc2cc(C(F)(F)P(=O)(O)O)ccc2s1)C(=O)N1CCC[C@H]1C(=O)N1CCOC(c2ccc(F)cc2F)C1 (some centres unmarked) in your reply.
1 to 10 µM

Note Ki for the compound shown: "CC(=O)N1CC[C@H]2CC[C@@H](C(=O)N(c3ccc(Cl)cc3)C(C)C)N2C(=O)[C@@H](NC(=O)c2cc3cc(C(F)(F)P(=O)(O)O)ccc3s2)C1"
1 to 10 µM

###

Could you please report measured Ki for the items listed next?
Sequence of the target: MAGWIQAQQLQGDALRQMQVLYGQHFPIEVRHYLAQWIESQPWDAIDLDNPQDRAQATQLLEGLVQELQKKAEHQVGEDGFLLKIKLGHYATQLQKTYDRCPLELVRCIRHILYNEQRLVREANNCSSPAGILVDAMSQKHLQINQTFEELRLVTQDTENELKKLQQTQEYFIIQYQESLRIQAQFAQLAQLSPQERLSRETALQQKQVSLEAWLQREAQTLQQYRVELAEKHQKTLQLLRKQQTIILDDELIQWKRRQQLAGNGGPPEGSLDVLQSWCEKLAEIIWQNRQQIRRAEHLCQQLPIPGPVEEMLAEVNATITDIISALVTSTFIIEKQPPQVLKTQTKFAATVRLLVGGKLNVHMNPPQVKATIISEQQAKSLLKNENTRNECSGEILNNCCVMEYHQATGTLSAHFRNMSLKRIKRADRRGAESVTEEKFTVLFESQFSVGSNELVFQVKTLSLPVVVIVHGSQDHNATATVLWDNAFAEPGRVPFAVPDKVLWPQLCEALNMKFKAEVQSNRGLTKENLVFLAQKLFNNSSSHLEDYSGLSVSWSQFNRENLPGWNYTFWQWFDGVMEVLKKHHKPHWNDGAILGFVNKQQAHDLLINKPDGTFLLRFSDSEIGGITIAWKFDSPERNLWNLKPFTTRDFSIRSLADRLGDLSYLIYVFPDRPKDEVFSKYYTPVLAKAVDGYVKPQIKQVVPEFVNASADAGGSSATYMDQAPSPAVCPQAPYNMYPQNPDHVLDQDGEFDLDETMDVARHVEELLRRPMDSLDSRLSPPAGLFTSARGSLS

Return Ki (reported value) for this molecule: CC(=O)N1CC[C@H]2CC[C@@H](C(=O)N3CCC[C@H](c4ccccc4)C3)N2C(=O)[C@@H](NC(=O)c2cc3cc(C(F)(F)P(=O)(O)O)ccc3s2)C1 [Compound 158]
> 10 µM

Supply reported Ki belonging to this molecule: CC(C)(C)[C@H](NC(=O)c1cc2cc(C(F)(F)P(=O)(O)O)ccc2s1)C(=O)N1CCC[C@H]1C(=O)N1CC[C@@H]2CN(C(=O)c3ccc(F)cc3)C[C@@H]21 [Compound 86]
> 10 µM

Supply reported Ki belonging to this molecule: NCCCC[C@H](NC(=O)c1cc2cc(C(F)(F)P(=O)(O)O)ccc2[nH]1)C(=O)N1CCC[C@H]1C(=O)N1CCc2ccccc2C1 [Compound 9]
> 10 µM

Please give the documented Ki of CN(C)C(=O)CCN(C(=O)[C@@H]1CCCN1C(=O)[C@@H](NC(=O)c1cc2cc(C(F)(F)P(=O)(O)O)ccc2s1)C1CCCCC1)c1ccc(-c2nccs2)cc1 [Compound 323]
1 to 10 µM

Dear colleague, please send me the reported Ki for CC1(c2ccc(Cl)cc2)CN(C(=O)[C@@H]2CCCN2C(=O)[C@@H](NC(=O)c2cc3cc(C(F)(F)P(=O)(O)O)ccc3s2)C(C)(C)C)CCO1 (some centres unmarked) [Compound 101] when you can.
> 10 µM

Reference source: patent US20230295200A1
